B1: LINE1-mini (parent)
chain: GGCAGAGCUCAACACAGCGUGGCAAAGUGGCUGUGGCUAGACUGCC

Variants of: B1
Assay: self-cleavage, relative activity (ratio to wild type); higher = more cleavage; in vitro, sequencing; the parent is a self-cleaving ribozyme
// self-cleavage lookup, one value per entry
Response field accepts a number only; no unit should be typed.

Check out these entries, answers already filled in.
U20G G35A :: 0.06
G5C G19A :: 0.14
A6G A39C :: 0.15
G7A G40C :: 0.1
C15U G40U :: 0.12

Incoming: Quick one: self-cleavage of C23U A24G ?
Outgoing: 0.88

Incoming: Quick one: self-cleavage of G36U C37G ?
Outgoing: 0.05

All figures here come from the RNAGym collection of RNA variant scans (doi:10.7554/elife.90254).
